Hey, just so you know, these numbers are from ChEMBL document CHEMBL3580599.

- Test system: Y79
- MEASUREMENT_NOTES: Growth inhibition of human Y79 cells assessed as reduction in cell number after 48 hrs by alamarBlue based fluorescence assay
- Format: functional
- MEASUREMENT_CONTEXT: Y79, 48 h
Listing of entries alongside the reported GI50.
Provide only the numeric value, understood in µM.

1) COc1ccc(CC2COc3cc(OC)c(OC)c(OC)c3C2=O)cc1NC(=O)[C@H](Cc1ccccc1)NC(=O)OC(C)(C)C (some centres undefined)	4.7
2) COc1ccc(/C=C2\COc3cc(OC)c(OC)c(OC)c3C2=O)cc1OCc1ccccc1	33

Exercise: Fill in the blank: the reported GI50 of COc1cc(OC)c2c(c1)OCC(Cc1ccc(OC)c(O)c1)C2=O (centres undefined) is ____.
Solution: 4.2

Exercise: What does the data say about its GI50? Entry: `COc1cc(OC)c2c(c1)OC/C(=C\c1ccc(OC)c(O)c1)C2=O`
Solution: 14

Exercise: So what's the measured GI50 for this one? `COc1cc(/C=C2\COc3cc(OC)c(OC)c(OC)c3C2=O)ccc1OCc1ccccc1`
Solution: 14

====

- Tested on: Y79
- MEASUREMENT_NOTES: Growth inhibition of human Y79 cells assessed as reduction in cell number after 48 hrs by alamarBlue based fluorescence assay
- Format: functional
- MEASUREMENT_CONTEXT: Y79, 48 h
GI50 overview

1) CC[C@H](C)[C@H](NC(=O)OC(C)(C)C)C(=O)Oc1cc(CC2COc3cc(OC)c(OC)c(OC)c3C2=O)ccc1OC (stereo partly drawn)	24 µM

Exercise: Dear colleague, I am looking for the recorded GI50 of the following compound: COc1ccc(CC2COc3cc(OC)c(OC)c(OC)c3C2=O)cc1OC(=O)[C@H](Cc1ccccc1)NC(=O)OCc1ccccc1 (stereo partly drawn)
Solution: > 100 µM

Exercise: Item `COc1cc(/C=C2\COc3cc(OC)c(OC)c(OC)c3C2=O)ccc1O` has what recorded GI50?
Solution: 5.2 µM

Exercise: Which GI50 value belongs to COc1ccc(CC2COc3cc(OC)c(OC)c(OC)c3C2=O)cc1OC(=O)c1ccccc1 (stereo not drawn) ?
Solution: > 100 µM

Exercise: Fill blank: measured GI50 of the compound COc1ccc(CC2COc3cc(OC)c(OC)c(OC)c3C2=O)cc1C(=O)O (stereo not drawn) is ____.
Solution: > 100 µM

Exercise: Quick check: GI50 of `COc1ccc(/C=C2\COc3cc(OC)c(OC)c(OC)c3C2=O)cc1O` ?
Solution: 44 µM

Exercise: Record request: GI50 value, item COc1ccc(CC2COc3cc(OC)c(OC)c(OC)c3C2=O)cc1OC(=O)[C@H](Cc1ccc(OCc2ccccc2)cc1)NC(=O)OC(C)(C)C (stereo partly drawn)
Solution: > 100 µM

Exercise: What value of GI50 has been reported for the following compound? COc1ccc(CC2COc3cc(OC)c(OC)c(OC)c3C2=O)cc1OC(=O)/C=C/c1ccccc1 (stereo not drawn)
Solution: > 100 µM

====

- Test system: Y79
- MEASUREMENT_NOTES: Growth inhibition of human Y79 cells assessed as reduction in cell number after 48 hrs by alamarBlue based fluorescence assay
- Format: functional
- MEASUREMENT_CONTEXT: Y79, 48 h
OBSERVED_PROPERTY: GI50

Past entries and their recorded results:
1) COc1ccc(CC2COc3cc(OC)c(OC)c(OC)c3C2=O)cc1OC(=O)[C@H](Cc1ccccc1)NS(=O)(=O)c1ccc(C)cc1 (stereo partly drawn)	> 100 µM
2) COc1ccc(CC2COc3cc(OC)c(OC)c(OC)c3C2=O)cc1N (stereo not drawn)	> 100 µM

# evaluate next
Exercise: Given the entry COc1cc2c(c(OC)c1OC)C(=O)C(Cc1ccccc1)CO2 (stereo not drawn) , report its measured GI50.
Solution: > 100 µM
